system: c-Abl (mouse); experiment: phosphorylation enrichment, bacterial display (enrichment ratio); higher = better substrate or ligand; peptides without Tyr show the background;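 further: 11-residue human phosphosite peptides and single-mutation variants displayed on the E. coli surface, counted by deep sequencing, each peptide's frequency after selection divided by its frequency in the unselected input library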;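 further: frequency after pTyr selection over input frequency; kinase dosed for 20-30% of maximal phosphorylation in three min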
Criterion: phosphorylation enrichment meeting or surpassing 0.5. Met: Fulfilled. Not met: Not fulfilled.

# sequence.chain, classification
data = [
    ("VKMLEYRGKDV [CASP5_Y74_L75R]", "Fulfilled"),
    ("DFFDLYGGKKF [PTPN11_Y66_E69K_YF]", "Fulfilled"),
    ("GIVEDYRPRFY [ACVRL1_Y421_P424R]", "Fulfilled"),
    ("GKTQQYDCKWY [BCR_Y751]", "Fulfilled"),
    ("HPYNSYTYPRL [PAK5_Y316_S312P]", "Not fulfilled"),
    ("RESYKYLPSSL [CXXC1_Y218_F219L]", "Fulfilled"),
    ("STGWSYAGVAV [KLHL3_Y577_R575W]", "Not fulfilled"),
    ("DRFANYIEKVR [DES_Y122]", "Fulfilled"),
    ("RGVAHYILQTF [SLC39A4_Y359_T357A]", "Fulfilled"),
    ("NGSKGYAYVHF [PABPC5_Y147]", "Fulfilled"),
    ("SSVKLYRVFCD [FGB_Y266_P265L_YF]", "Fulfilled"),
    ("RRGTRYMSSRP [RPL21_Y13_F15S]", "Fulfilled"),
    ("ATFRGYDSDNP [MMUT_Y146_H143Y_YF]", "Fulfilled"),
]
